Recorded values, source patent US20240208992A1.

molecular target: human F508del-CFTR (Homo sapiens, UniProt P13569, DEL508-508); experiment: F508del-CFTR cell surface expression (corrector activity), DiscoveRx ß-galactosidase complementation chemiluminescence assay in recombinant U2OS cell line; conditions: U2OS, in relation to Emax of corrector lumacaftor (=100%); arithmetic mean values
Sequence (P13569 with tags, fused parts or gaps DEL508-508): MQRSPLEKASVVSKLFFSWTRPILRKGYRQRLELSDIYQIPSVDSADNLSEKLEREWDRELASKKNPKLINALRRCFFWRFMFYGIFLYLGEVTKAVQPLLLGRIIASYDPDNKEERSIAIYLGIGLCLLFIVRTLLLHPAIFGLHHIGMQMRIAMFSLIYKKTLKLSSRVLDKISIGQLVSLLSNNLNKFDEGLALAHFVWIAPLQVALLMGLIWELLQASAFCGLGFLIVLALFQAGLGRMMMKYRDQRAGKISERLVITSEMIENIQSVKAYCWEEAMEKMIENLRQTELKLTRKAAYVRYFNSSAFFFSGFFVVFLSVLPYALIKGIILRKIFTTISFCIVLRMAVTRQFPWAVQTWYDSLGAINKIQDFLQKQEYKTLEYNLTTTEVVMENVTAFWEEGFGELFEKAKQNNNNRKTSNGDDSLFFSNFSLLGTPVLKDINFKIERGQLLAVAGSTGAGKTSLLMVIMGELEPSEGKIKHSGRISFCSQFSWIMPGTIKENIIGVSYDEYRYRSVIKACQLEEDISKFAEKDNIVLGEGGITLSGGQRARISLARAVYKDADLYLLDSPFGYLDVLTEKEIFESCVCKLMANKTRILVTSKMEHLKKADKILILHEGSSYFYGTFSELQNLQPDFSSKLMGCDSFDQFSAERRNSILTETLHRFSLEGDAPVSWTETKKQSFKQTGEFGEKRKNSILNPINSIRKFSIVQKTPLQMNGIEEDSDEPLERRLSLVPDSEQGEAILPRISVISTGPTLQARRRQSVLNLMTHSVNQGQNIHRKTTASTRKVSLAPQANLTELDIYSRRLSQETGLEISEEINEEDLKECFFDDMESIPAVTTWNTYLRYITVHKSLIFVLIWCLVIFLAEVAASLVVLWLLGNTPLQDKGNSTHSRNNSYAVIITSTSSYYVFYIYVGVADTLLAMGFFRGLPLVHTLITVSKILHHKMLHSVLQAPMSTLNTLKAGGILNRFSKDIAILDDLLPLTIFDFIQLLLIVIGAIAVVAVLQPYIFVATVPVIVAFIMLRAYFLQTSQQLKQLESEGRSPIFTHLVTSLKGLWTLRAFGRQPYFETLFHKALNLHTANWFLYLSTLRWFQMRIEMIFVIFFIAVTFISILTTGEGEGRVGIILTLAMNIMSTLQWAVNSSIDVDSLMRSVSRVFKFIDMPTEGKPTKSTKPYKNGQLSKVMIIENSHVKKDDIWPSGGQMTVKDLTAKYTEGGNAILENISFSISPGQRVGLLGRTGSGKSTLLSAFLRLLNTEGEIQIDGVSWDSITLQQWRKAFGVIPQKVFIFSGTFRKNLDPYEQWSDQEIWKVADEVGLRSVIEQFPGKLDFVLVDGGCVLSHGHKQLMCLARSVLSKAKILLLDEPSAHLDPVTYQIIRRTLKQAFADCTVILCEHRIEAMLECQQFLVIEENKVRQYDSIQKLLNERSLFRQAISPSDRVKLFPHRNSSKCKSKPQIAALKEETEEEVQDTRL

{"STRUCTURE_SMILES": "Cc1cc(CCNC(=O)[C@@H]2CC(=O)N(C)[C@@H](CC(C)C)C(=O)N3CCCC[C@@H]3C(=O)N[C@H](Cc3ccccc3)COc3cnc4c(F)cccc4c3C(=O)N2)on1", "Emax (%)": 275}
{"STRUCTURE_SMILES": "COc1cccc(CCNC(=O)[C@@H]2CC(=O)N(C)[C@@H](CC(C)C)C(=O)N(CCC3CCCCC3)CC(=O)N[C@H](Cc3ccccn3)COc3ccc4ccccc4c3C(=O)N2)c1", "Emax (%)": 268}
{"STRUCTURE_SMILES": "COc1nc(C)cc2c1C(=O)N[C@H](C(=O)NCCc1cc(C3CC3)no1)CC(=O)N(C)[C@@H](CC(C)C)C(=O)N1CCCC[C@@H]1C(=O)N[C@H](Cc1ccccc1)CO2", "Emax (%)": 300}
{"STRUCTURE_SMILES": "COc1cccc(CCNC(=O)[C@@H]2CC(=O)N(C)[C@@H](CC(C)C)C(=O)N3CCN(S(=O)(=O)c4ccccc4)C[C@@H]3C(=O)N[C@H](Cc3ccccc3)COc3ccc4ccccc4c3C(=O)N2)c1", "Emax (%)": 258}
{"STRUCTURE_SMILES": "CC(C)C[C@H]1C(=O)N2CCN(C3CC3)C[C@@H]2C(=O)N[C@H](Cc2ccccc2)COc2cnc3ccccc3c2C(=O)N[C@H](C(=O)NCCc2nc3c(s2)CCC3)CC(=O)N1C", "Emax (%)": 254}

###

molecular target: human F508del-CFTR (Homo sapiens, UniProt P13569, DEL508-508); experiment: F508del-CFTR cell surface expression (corrector activity), DiscoveRx ß-galactosidase complementation chemiluminescence assay in recombinant U2OS cell line; details: EC50, F508del-CFTR cell surface expression, U2OS cells, 16h compound incubation; geomean values
// returns 0.0 unless EC50 is strictly below 300 nM, in which case 1.0

{"MOLECULE": "Cc1cc(CCNC(=O)[C@@H]2CC(=O)N(C)[C@@H](CC(C)C)C(=O)N(CC[C@@H]3CCCCO3)CC(=O)N[C@H](Cc3ccccc3)COc3cnc4ccccc4c3C(=O)N2)on1 [Example 446]", "CATEGORY_LABEL": 0.0}
{"MOLECULE": "Cc1cc(CCNC(=O)[C@@H]2CC(=O)N(C)[C@@H](CC(C)C)C(=O)N3CCCC[C@@H]3C(=O)N[C@H](Cc3ccccc3)COc3ccc4ccccc4c3C(=O)N2)on1 [Example 607]", "CATEGORY_LABEL": 1.0}
{"MOLECULE": "COc1cc(CCNC(=O)[C@@H]2CC(=O)N(C)[C@@H](CC(C)C)C(=O)N3CCCC[C@@H]3C(=O)N[C@H](Cc3ccccc3)COc3cc(C)nc(OC)c3C(=O)N2)on1 [Example 533]", "CATEGORY_LABEL": 1.0}
{"MOLECULE": "COc1cccc(CCNC(=O)[C@@H]2CC(=O)N(C)[C@@H](CC(C)C)C(=O)N3CCN(CC4CC4)C[C@@H]3C(=O)N[C@H](Cc3ccccc3)COc3ccc4nc(C)oc4c3C(=O)N2)c1 [Example 425]", "CATEGORY_LABEL": 0.0}
{"MOLECULE": "Cc1nc2ccc3c(c2o1)C(=O)N[C@H](C(=O)NCCc1cccc([C@H](C)O)c1)CC(=O)N(C)[C@@H](CC(C)C)C(=O)N(CCC1CCCCC1)CC(=O)N[C@H](Cc1ccccc1)CO3 (racemic) [Example 728]", "CATEGORY_LABEL": 1.0}

###

target: human F508del-CFTR (Homo sapiens, UniProt P13569, DEL508-508); test: F508del-CFTR cell surface expression (corrector activity), DiscoveRx ß-galactosidase complementation chemiluminescence assay in recombinant U2OS cell line; settings: U2OS, in relation to the Emax of the corrector lumacaftor (=100%); U2OS cell line, 16h compound incubation; arithmetic mean values;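 further: U2OS cells co-expressing ProLink-tagged F508del-CFTR and a membrane-anchored enzyme acceptor, where more surface CFTR restores β-galactosidase activity measured by chemiluminescence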
Recorded measurements of Emax, one per entry

{"COMPOUND": "Cc1ccccc1CCNC(=O)[C@@H]1CC(=O)N(C)[C@@H](CC(C)C)C(=O)N2CCOC[C@@H]2C(=O)N[C@H](Cc2ccccc2)COc2cnc3ccccc3c2C(=O)N1", "UNIT_OF_MEASUREMENT": "%", "Emax": 143}
{"COMPOUND": "COc1cccc(OCCNC(=O)[C@@H]2CC(=O)N(C)[C@@H](CC(C)C)C(=O)N3CCOC[C@@H]3C(=O)N[C@H](Cc3ccccc3)COc3ccc4ccccc4c3C(=O)N2)c1", "UNIT_OF_MEASUREMENT": "%", "Emax": 141}
{"COMPOUND": "CC(C)C[C@H]1C(=O)N(C)C2(CC2)C(=O)N[C@H](Cc2ccccc2)COc2cnc3ccccc3c2C(=O)N[C@H](C(=O)NCC(F)(F)c2ccccc2)CC(=O)N1C", "UNIT_OF_MEASUREMENT": "%", "Emax": 107}
{"COMPOUND": "CC(C)C[C@H]1C(=O)N2CCCC[C@@H]2C(=O)N[C@H](Cc2ccccc2)COc2ccc3ncn(C)c3c2C(=O)N[C@H](C(=O)NCCc2noc3ccccc23)CC(=O)N1C", "UNIT_OF_MEASUREMENT": "%", "Emax": 113}
{"COMPOUND": "CC(C)C[C@H]1C(=O)N(CCC2CC3CCC2O3)CC(=O)N[C@H](Cc2ccccc2)COc2ccc3ccccc3c2C(=O)N[C@H](C(=O)NCCc2ccc3c(c2)OCO3)CC(=O)N1C (some centres unmarked)", "UNIT_OF_MEASUREMENT": "%", "Emax": 138}
{"COMPOUND": "COc1cccc(CCNC(=O)[C@@H]2CC(=O)N(C)[C@@H](CC(C)C)C(=O)N(C)CC(=O)N[C@H](Cc3ccccc3)COc3cc(C)ccc3C(=O)N2)c1", "UNIT_OF_MEASUREMENT": "%", "Emax": 92}
{"COMPOUND": "COc1nccc2c1C(=O)N[C@H](C(=O)NCCc1cc(C(F)(F)F)no1)CC(=O)N(C)[C@@H](CC(C)C)C(=O)N1CCCC[C@@H]1C(=O)N[C@H](Cc1ccccc1)CO2", "UNIT_OF_MEASUREMENT": "%", "Emax": 248}
{"COMPOUND": "CC(C)C[C@H]1C(=O)N(C[C@H]2CCCCO2)CC(=O)N[C@H](Cc2ccccc2)COc2ccc3ccccc3c2C(=O)N[C@H](C(=O)NCCc2ccc3c(c2)OCO3)CC(=O)N1C (racemic)", "UNIT_OF_MEASUREMENT": "%", "Emax": 132}
{"COMPOUND": "CC(C)C[C@H]1C(=O)N2CCOC[C@@H]2C(=O)N[C@H](Cc2ccccc2)COc2cnc3ccccc3c2C(=O)N[C@H](C(=O)NCCc2ccc(F)cc2)CC(=O)N1C", "UNIT_OF_MEASUREMENT": "%", "Emax": 236}
{"COMPOUND": "Cc1cc(CCNC(=O)[C@@H]2CC(=O)N(C)[C@@H](CC(C)C)C(=O)N3CCCC[C@@H]3C(=O)N[C@H](Cc3ccccc3)COc3cnc4ccccc4c3C(=O)N2)ccc1-n1nccn1", "UNIT_OF_MEASUREMENT": "%", "Emax": 229}
{"COMPOUND": "COc1cc2c(cc1OC)C(=O)N[C@H](C(=O)NCCc1ccc3c(c1)OCCC3)CC(=O)N(C)[C@@H](CC(C)C)C(=O)N(C)CC(=O)N[C@H](Cc1ccccc1)CO2", "UNIT_OF_MEASUREMENT": "%", "Emax": 198}
{"COMPOUND": "CCc1ccc(CCNC(=O)[C@@H]2CC(=O)N(C)[C@@H](CC(C)C)C(=O)N(C)CC(=O)N[C@H](Cc3ccccc3)COc3cc4c(cc3C(=O)N2)OCO4)cc1", "UNIT_OF_MEASUREMENT": "%", "Emax": 103}
{"COMPOUND": "CC(C)C[C@H]1C(=O)N2CCCC[C@@H]2C(=O)N[C@H](Cc2ccccc2)COc2ccc3ncn(C)c3c2C(=O)N[C@H](C(=O)NCCc2cccc(OC(F)F)c2)CC(=O)N1C (racemic)", "UNIT_OF_MEASUREMENT": "%", "Emax": 111}
{"COMPOUND": "COCCCN1C(=O)[C@H](CC(C)C)N(C)C(=O)C[C@@H](C(=O)NCCc2cccc(OC)c2)NC(=O)c2c(ccc3ccccc23)OC[C@@H](Cc2ccccc2)NC(=O)C12CC2", "UNIT_OF_MEASUREMENT": "%", "Emax": 190}
{"COMPOUND": "Cc1c(CCNC(=O)[C@@H]2CC(=O)N(C)[C@@H](CC(C)C)C(=O)N3CCOC[C@@H]3C(=O)N[C@H](Cc3ccccc3)COc3ccc4ccccc4c3C(=O)N2)c(Cl)cc2c1OCCO2", "UNIT_OF_MEASUREMENT": "%", "Emax": 120}
{"COMPOUND": "CN1CC(=O)N[C@H](Cc2ccccc2)COc2cc3c(cc2C(=O)N[C@H](C(=O)NCCc2ccc4c(c2)OCO4)CC(=O)N(C)[C@@H](CC2CCC2)C1=O)OCO3", "UNIT_OF_MEASUREMENT": "%", "Emax": 118}
{"COMPOUND": "COc1nccc2c1C(=O)N[C@H](C(=O)NCCc1cnn(C3CC3)c1)CC(=O)N(C)[C@@H](CC(C)C)C(=O)N1CCCC[C@@H]1C(=O)N[C@H](Cc1ccccc1)CO2", "UNIT_OF_MEASUREMENT": "%", "Emax": 245}
{"COMPOUND": "CC(C)C[C@H]1C(=O)N(C)CC(=O)N[C@H](Cc2ccccc2)COc2ccc3c(c2C(=O)N[C@H](C(=O)NCCc2ccc4c(c2)OCO4)CC(=O)N1C)OCO3", "UNIT_OF_MEASUREMENT": "%", "Emax": 266}
{"COMPOUND": "COc1cc(CCNC(=O)[C@@H]2CC(=O)N(C)[C@@H](CC(C)C)C(=O)N3CCOC[C@@H]3C(=O)N[C@H](Cc3ccccc3)COc3ccc4ccccc4c3C(=O)N2)cc(OC)c1", "UNIT_OF_MEASUREMENT": "%", "Emax": 237}
{"COMPOUND": "Cc1onc(CCNC(=O)[C@@H]2CC(=O)N(C)[C@@H](CC(C)C)C(=O)N3CCOC[C@@H]3C(=O)N[C@H](Cc3ccccc3)COc3ccc4ccccc4c3C(=O)N2)c1C", "UNIT_OF_MEASUREMENT": "%", "Emax": 202}
